Tested on: NCI/ADR-RES ovarian
Experiment: NCI tumour cell line growth inhibition, 48 h
Measured TGI, listed per entry for reference.

The cases that follow already have their TGI on record.
1. COc1cc(/C=C2\C[C@H]3[C@@H]4CC=C5C[C@@H](O)CC[C@]5(C)[C@H]4CC[C@]3(C)C2=O)cc(OC)c1OC = > 100 µM
2. COc1ccnc2c1C(=O)c1nc3ccccc3c3ccnc-2c13 = 0.147 µM
3. NC(=O)C(=CNc1nc(-c2ccc(Cl)c(Cl)c2)cs1)C(N)=O = > 100 µM
4. CN(C)Cc1c[nH]c2c1C(=O)c1c(c(O)c3ccccc3c1O)C2=O = 22.8 µM
5. COc1cccc(CCn2c(N)c(-c3ccccc3)c3ccc([N+](=O)[O-])cc3c2=O)c1 = 5.21 µM

Q: Look at this compound and give its reported TGI. Cc1c(C2Nc3ccccc3C2C)[nH]c2ccccc12 (stereo unspecified)
A: 30.7 µM

Q: Look at this compound and give its reported TGI. `CC(=O)c1c(CBr)n([O-])c2ccccc2[n+]1=O`
A: 50.3 µM

Q: Look at this compound and give its reported TGI. `O=C(NCCCNC(=O)c1ccc2c(O)c(O)ccc2c1)c1ccc2c(O)c(O)ccc2c1`
A: > 100 µM

Q: Look at this compound and give its reported TGI. `CN(C)c1ccc2nc3ccc(=O)cc-3sc2c1`
A: > 100 µM

Q: Look at this compound and give its reported TGI. `CCOC(=O)c1nc2c(Cl)c3ncccc3cc2[nH]c1=O`
A: > 100 µM

Q: Look at this compound and give its reported TGI. N#CC(NNC(=O)Cc1ccccc1)c1ccccc1O (stereo unspecified)
A: > 74.6 µM

Q: Look at this compound and give its reported TGI. COC(COC(=O)N1CCN(C=O)CC1)C1=C(N2CC2)C(=O)C(C)=C(N2CC2)C1=O (stereo unspecified)
A: 31.9 µM

Q: Look at this compound and give its reported TGI. `CC(=O)N(C(=O)CC(=O)N/N=C\c1ccc(Br)c(N(CCC#N)CCC#N)c1)c1ccc(Cl)cc1`
A: > 100 µM

Q: Look at this compound and give its reported TGI. `O=C(O)c1ccc(NNc2cc(=O)[nH]c(=O)[nH]2)cc1`
A: > 100 µM

Q: Look at this compound and give its reported TGI. CC(C)=CCS(=O)c1ccccc1NC1=CC(=O)CC(C)(C)C1 (stereo unspecified)
A: > 100 µM

Q: Look at this compound and give its reported TGI. `C=CCNC1=C2C[C@@H](C)C[C@@H](OC)[C@@H](OC(=O)CCCN)[C@H](C)/C=C(\C)[C@@H](OC(N)=O)[C@H](OC)/C=C\C=C(/C)C(=O)NC(=CC1=O)C2=O`
A: > 100 µM

Q: Look at this compound and give its reported TGI. `O=C(O)c1cccc(OCCO)c1`
A: > 100 µM

---

System: LOX IMVI melanoma
Answer with one of the outcomes given here: yes for active, no for inactive

1) Nc1nc(Br)nc2c1ncn2C1CC(O)C(CO)O1 (stereo not given) = no
2) Nc1ccncc1/C=C1/C(=O)Nc2ccccc21 = no
3) O=C(N/N=C\c1cc(Br)ccc1O)c1ccncc1 = no

Q: Check the results log: what was the call for `NC(=O)C(=CNc1nc(-c2ccc(Cl)c(Cl)c2)cs1)C(N)=O` ?
A: no

Q: Check the results log: what was the call for O=C(O)c1cc(O)c2c(c1)C(C1c3cc(C(=O)O)cc(O)c3C(=O)c3c(OC4OC(CO)C(O)C(O)C4O)cccc31)c1cccc(OC3OC(CO)C(O)C(O)C3O)c1C2=O (stereo not given) ?
A: no

Q: Check the results log: what was the call for `Cc1c[n+](Cc2ccc3ccccc3c2)cn1Cc1ccc2ccccc2c1` ?
A: no

Q: Check the results log: what was the call for `CCCCCc1c(C)[nH]c(/C=C2\N=C(c3ccc[nH]3)C=C2CC)c1C` ?
A: yes

---

Test system: EKVX NSCLC
Experiment: NCI tumour cell line growth inhibition, 48 h
Outcome Measure: TGI (µM)
Respond numerically; units are µM and should not be typed.

1) CC(=O)OCC1OC([S-])C(OC(C)=O)C(OC(C)=O)C1OC(C)=O.CC[PH+](CC)CC.CC[PH+](CC)CC.[Au].[Au] (stereo not drawn) = 0.921
2) Cc1n(Cc2ccc3ccccc3c2)cc[n+]1Cc1ccc2ccccc2c1 = 17.1
3) COc1cccc(CCn2c(N)c(-c3ccccc3)c3ccc([N+](=O)[O-])cc3c2=O)c1 = 24.8

Could you now look at the following compound, please?
Q: Look at this compound and give its reported TGI. N#CC1(C2SCCS2=O)C2=C(C(=O)c3ccccc3C2=O)N2CCCC21 (stereo not drawn)
A: 13.9

---

Test system: IGROV1 ovarian
Experiment: NCI tumour cell line growth inhibition, 48 h
Outcome Measure: TGI

1) Nc1ccc(C(=O)NN2C(=O)C(Cl)C2c2ccccc2Cl)cc1 (stereo not drawn) = 26.4 µM
2) OCCCCC#Cc1ccccc1C#Cc1cccc(O)c1 = 33.3 µM
3) O=C(O)c1c(-c2nccc3ccccc23)[nH]c(-c2ccccc2)c1S(=O)(=O)O = > 100 µM
4) CC1=C(C(=O)Nc2c(C)cccc2C)C(c2ccccc2Cl)C(C(=O)Nc2c(C)cccc2C)=C(C)N1 = > 100 µM
5) O=C1NC(=O)C(c2c[nH]c3cc(Br)ccc23)=C1c1cn(C(c2ccccc2)(c2ccccc2)c2ccccc2)cn1 = 28.5 µM
6) CNC(=S)N/N=C(C)\C(=N/NC(=S)NC)c1ccccc1 = > 100 µM
7) O=c1[nH]cc(COCC(F)(F)C(F)(F)C(F)(F)C(F)F)c(=O)[nH]1 = > 100 µM
8) CCOC(=O)C(N=Nc1ccc(S(N)(=O)=O)cc1)C(C)=O (stereo not drawn) = > 100 µM
9) O=C1C(Cl)C(c2ccccc2)N1n1cnc2ccccc2c1=O (stereo not drawn) = > 100 µM
10) CC1=C(Br)C(Br)=C(C)S1=O = > 100 µM

Q: Look at this compound and give its reported TGI. CC(C)=CCS(=O)c1ccccc1NC1=CC(=O)CC(C)(C)C1 (stereo not drawn)
A: > 100 µM

Q: Look at this compound and give its reported TGI. `COn1cc(C=O)c2ccccc21`
A: > 100 µM

Q: Look at this compound and give its reported TGI. `O=C(O)c1ccccc1-c1ccccc1C(=O)Nc1ccc2c(c1)Cc1cc(F)ccc1-2`
A: > 100 µM

Q: Look at this compound and give its reported TGI. `O=C(Nc1cccc(Cl)c1)c1cc2ccccc2cc1O`
A: > 100 µM

---

Test system: A498 renal
Assay: NCI tumour cell line growth inhibition, 48 h
Outcome Measure: TGI (µM)
Respond numerically; units are µM and should not be typed.

The cases that follow already have their TGI on record.
1) O=C1CSC(Cc2nc3ccccc3[nH]2)=N1 = 10.4
2) CCCCCC(C[N+]1(C)CCOCC1)C(=O)/C=C/c1ccccc1 (stereo not drawn) = 31.7
3) Cc1c[n+](Cc2ccc3ccccc3c2)cn1Cc1ccc2ccccc2c1 = 4.29
4) COc1c(C)c2c(c(C)c1Cl)Oc1c(C=O)c(O)c(Cl)c(C)c1C(=O)O2 = 58.8
5) Cc1[nH]n(-c2cccc(Cl)c2)c(=O)c1/C=C1\C=Nc2ccc(Br)cc21 = 5.18

Q: Look at this compound and give its reported TGI. `Cc1cn2c(/C=C3/C(=O)Nc4ccccc43)c(-c3ccc(Cl)cc3)nc2s1`
A: 23.6

Q: Look at this compound and give its reported TGI. `CN1CCc2c(Sc3ccc(C(=O)NO)cc3)c3ccccc3n2C1`
A: 2.44

---

Measured TGI, listed per entry for reference.
System: HS 578T breast
Experiment: NCI tumour cell line growth inhibition, 48 h

Q: Look at this compound and give its reported TGI. CCOC(=O)CC1c2ccc(O)cc2OC(=O)C1c1ccc([N+](=O)[O-])cc1 (stereo unspecified)
A: > 100 µM

Q: Look at this compound and give its reported TGI. `O/N=C\c1c(O)ccc2ccccc12`
A: > 100 µM

Q: Look at this compound and give its reported TGI. CC(C)CC1[C@@H](OCc2ccccc2)COS(=O)N1Cc1ccccc1 (stereo partly specified)
A: 80 µM

Q: Look at this compound and give its reported TGI. CCC1OC2C(CC=C(C)C)=C3OC(C)(O)C(C)(CC)C(OC(=O)c4ccccc4)C3=C3OC(=O)C=C1C32 (stereo unspecified)
A: > 100 µM

Q: Look at this compound and give its reported TGI. `CCCS(=O)(=O)Nc1ccc(Nc2c3ccccc3nc3ccccc23)c(OC)c1`
A: 16.7 µM

Q: Look at this compound and give its reported TGI. `Nc1nc(Nc2ccccc2)c2ncn(Cc3cc4c(cc3Br)OCO4)c2n1`
A: > 94.9 µM

Q: Look at this compound and give its reported TGI. COc1ccc2c(c1)CN1C(=N2)CSC1c1cc([N+](=O)[O-])ccc1Cl (stereo unspecified)
A: > 100 µM

Q: Look at this compound and give its reported TGI. CN1CCOC1(C)CO (stereo unspecified)
A: > 100 µM

Q: Look at this compound and give its reported TGI. O=C(O)c1cc(O)c2c(c1)C(C1c3cc(C(=O)O)cc(O)c3C(=O)c3c(OC4OC(CO)C(O)C(O)C4O)cccc31)c1cccc(OC3OC(CO)C(O)C(O)C3O)c1C2=O (stereo unspecified)
A: > 100 µM
